- system_under_test: T1, cynomolgus monkey GPVI extracellular domain fused at its C-terminus to human IgG1 Fc (GPVI-Fc) (cynomolgus monkey; human)
- T1 construct: also called cyGPVI-2; cyGPVI
- procedure_summary: Competition ELISA (MSD): cynomolgus GPVI-Fc preincubated with Fab, then on coated rat-tail collagen (competitor)
This section presents binders with their documented Max. inhibition at 200 nM Fab [%] values.
measurement_type: Max. inhibition at 200 nM Fab [%] (%)

binder	meas_value
Fab #1 comprising a modified heavy chain constant region (Fab, V domains shown, Human Fab from the Ylanthia library; produced in HKB11 cells; also called Fab #1 mod; HC) VH: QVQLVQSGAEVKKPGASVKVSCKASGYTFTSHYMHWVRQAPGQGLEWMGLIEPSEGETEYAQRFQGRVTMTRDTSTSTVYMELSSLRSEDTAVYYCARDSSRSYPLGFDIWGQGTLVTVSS VL: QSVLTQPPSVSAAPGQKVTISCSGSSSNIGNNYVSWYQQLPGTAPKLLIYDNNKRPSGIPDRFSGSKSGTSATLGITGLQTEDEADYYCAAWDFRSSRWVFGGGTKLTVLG	86
Fab #2 comprising a modified heavy chain constant region (Fab, V domains shown, Human Fab from the Ylanthia library; produced in HKB11 cells; also called Fab #2 mod; HC) VH: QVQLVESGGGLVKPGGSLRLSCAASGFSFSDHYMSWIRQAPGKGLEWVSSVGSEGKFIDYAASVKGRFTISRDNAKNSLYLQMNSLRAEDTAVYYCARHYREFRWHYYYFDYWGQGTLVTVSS VL: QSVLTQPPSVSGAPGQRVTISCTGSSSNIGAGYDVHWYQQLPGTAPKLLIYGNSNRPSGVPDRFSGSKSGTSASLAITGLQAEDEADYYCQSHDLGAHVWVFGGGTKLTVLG	100
Fab #3 comprising a modified heavy chain constant region (Fab, V domains shown, Human Fab from the Ylanthia library; produced in HKB11 cells; also called Fab #3 mod; HC) VH: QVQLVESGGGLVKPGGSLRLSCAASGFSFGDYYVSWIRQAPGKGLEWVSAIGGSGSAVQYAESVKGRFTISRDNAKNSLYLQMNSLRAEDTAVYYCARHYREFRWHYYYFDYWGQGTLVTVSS VL: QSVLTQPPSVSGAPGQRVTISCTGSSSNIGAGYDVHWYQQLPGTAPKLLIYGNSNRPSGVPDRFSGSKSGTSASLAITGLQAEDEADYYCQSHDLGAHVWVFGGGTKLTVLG	99
